The following binders are shown together with reported absorbance 490 nm/630 nm values.
target-desc: T1, full-length recombinant human PAD4 (human, UniProt Q9UM07 1-663)
T1 construct: also called peptidylarginine deiminase 4
T1 sequence (Q9UM07 whole entry): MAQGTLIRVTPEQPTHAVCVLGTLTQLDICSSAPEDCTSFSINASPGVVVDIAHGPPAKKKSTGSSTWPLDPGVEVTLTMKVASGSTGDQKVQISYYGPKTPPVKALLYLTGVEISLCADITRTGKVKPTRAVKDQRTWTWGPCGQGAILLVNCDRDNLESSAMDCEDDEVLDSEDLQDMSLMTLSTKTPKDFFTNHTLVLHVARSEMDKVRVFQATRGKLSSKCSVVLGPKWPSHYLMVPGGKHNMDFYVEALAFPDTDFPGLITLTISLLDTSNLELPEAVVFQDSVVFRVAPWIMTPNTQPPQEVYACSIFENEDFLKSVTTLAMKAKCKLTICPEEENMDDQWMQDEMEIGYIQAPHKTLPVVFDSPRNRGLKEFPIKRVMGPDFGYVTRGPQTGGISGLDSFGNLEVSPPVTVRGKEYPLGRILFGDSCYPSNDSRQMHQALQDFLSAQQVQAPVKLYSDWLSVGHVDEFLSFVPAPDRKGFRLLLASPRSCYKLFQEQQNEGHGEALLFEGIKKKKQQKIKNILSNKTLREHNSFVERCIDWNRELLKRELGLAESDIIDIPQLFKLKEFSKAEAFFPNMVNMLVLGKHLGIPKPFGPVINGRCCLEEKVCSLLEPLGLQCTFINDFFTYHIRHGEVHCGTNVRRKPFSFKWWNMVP
protocol-text: ELISA, human PAD4 on plate, antibody 0.0009766 ug/mL
Just the number please, in OD, no unit attached.

// solved cases for absorbance 490 nm/630 nm follow
A11 (antibody, IgG1, V domains shown, Chicken variable regions in mouse chimeric antibody (IgG1) expression vectors; also called anti-PAD4 antibody A11; A11 etc) VH: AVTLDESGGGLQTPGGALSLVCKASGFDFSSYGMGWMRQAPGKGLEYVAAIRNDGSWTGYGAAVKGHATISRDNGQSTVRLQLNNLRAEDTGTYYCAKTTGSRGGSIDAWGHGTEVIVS VL: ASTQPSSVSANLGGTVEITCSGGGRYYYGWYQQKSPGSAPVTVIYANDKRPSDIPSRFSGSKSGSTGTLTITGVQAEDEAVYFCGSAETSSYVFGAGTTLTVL    0.511
E9 (antibody, IgG1, V domains shown, Chicken variable regions in mouse chimeric antibody (IgG1) expression vectors; also called anti-PAD4 antibody E9; A11 etc) VH: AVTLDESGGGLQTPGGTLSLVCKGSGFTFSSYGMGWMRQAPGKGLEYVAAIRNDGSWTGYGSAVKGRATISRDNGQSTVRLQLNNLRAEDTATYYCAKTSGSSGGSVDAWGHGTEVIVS VL: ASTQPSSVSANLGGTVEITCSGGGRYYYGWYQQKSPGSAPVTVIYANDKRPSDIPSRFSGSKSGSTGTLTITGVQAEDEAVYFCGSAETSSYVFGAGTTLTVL    0.489
H7 (antibody, IgG1, V domains shown, Chicken variable regions in mouse chimeric antibody (IgG1) expression vectors; also called anti-PAD4 antibody H7; A11 etc) VH: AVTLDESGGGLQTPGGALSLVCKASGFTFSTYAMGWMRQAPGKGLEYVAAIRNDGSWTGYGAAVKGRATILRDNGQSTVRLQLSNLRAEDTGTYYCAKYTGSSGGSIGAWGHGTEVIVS VL: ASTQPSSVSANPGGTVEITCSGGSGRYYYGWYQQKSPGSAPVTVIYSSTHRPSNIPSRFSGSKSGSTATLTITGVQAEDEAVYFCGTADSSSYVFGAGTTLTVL    0.537

(Q) Note down absorbance 490 nm/630 nm recorded for G8 (antibody, IgG1, V domains shown, Chicken variable regions in mouse chimeric antibody (IgG1) expression vectors; also called anti-PAD4 antibody G8; A11 etc) VH: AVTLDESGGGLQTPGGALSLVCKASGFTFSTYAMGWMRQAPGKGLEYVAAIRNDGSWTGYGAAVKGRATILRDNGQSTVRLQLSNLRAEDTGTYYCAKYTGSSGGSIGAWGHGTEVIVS VL: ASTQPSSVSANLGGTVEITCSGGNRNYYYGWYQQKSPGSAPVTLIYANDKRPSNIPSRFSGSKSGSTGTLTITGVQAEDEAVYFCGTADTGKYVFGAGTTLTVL
(A) 0.544

(Q) Note down absorbance 490 nm/630 nm recorded for G6 (antibody, IgG1, V domains shown, Chicken variable regions in mouse chimeric antibody (IgG1) expression vectors; also called anti-PAD4 antibody G6; A11 etc) VH: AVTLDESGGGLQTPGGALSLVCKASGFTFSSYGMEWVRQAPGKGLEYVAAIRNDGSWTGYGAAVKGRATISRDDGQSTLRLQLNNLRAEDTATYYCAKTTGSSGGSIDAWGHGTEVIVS VL: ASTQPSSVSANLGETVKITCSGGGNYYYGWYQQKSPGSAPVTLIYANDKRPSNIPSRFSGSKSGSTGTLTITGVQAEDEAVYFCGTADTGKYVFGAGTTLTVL
(A) 0.437

(Q) Note down absorbance 490 nm/630 nm recorded for G9 (antibody, IgG1, V domains shown, Chicken variable regions in mouse chimeric antibody (IgG1) expression vectors; also called anti-PAD4 antibody G9; A11 etc) VH: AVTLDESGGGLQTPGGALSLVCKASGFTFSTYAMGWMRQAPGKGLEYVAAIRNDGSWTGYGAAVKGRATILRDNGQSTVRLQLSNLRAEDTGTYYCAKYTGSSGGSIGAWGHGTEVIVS VL: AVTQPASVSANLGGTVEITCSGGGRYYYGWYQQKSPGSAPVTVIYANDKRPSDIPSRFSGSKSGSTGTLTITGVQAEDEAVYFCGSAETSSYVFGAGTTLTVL
(A) 0.534
